experiment: Displacement of [3H]WAY-100635 from 5-HT1A receptor in pig cortex membranes; format: cell membranes, Sus scrofa
For each entry below, report its pKi value.
Give bare numbers, as −log10 of the molar value.

Below are 3 compounds. Give each one its pKi.
1. Cc1ccc(CNCC2(F)CCN(C(=O)c3ccc(F)c(Cl)c3)CC2)nc1
2. Cc1ccc(CNCC2(F)CCN(C(=O)c3sc4sccc4c3Cl)CC2)nc1
3. Cc1ccc(CNCC2(F)CCN(C(=O)c3cc4ccccc4[te]3)CC2)nc1

Completion:
1: 8.96; 2: 7.60; 3: 7.29

Below are 4 compounds. Give each one its pKi.
1. Cc1ccc(CNCC2(F)CCN(C(=O)c3ccc(-c4cccs4)s3)CC2)nc1
2. Cc1ccc(CNCC2(F)CCN(C(=O)c3cc(Br)c(Br)s3)CC2)nc1
3. Cc1ccc(CNCC2(F)CCN(C(=O)c3cc4cc(Br)ccc4s3)CC2)nc1
4. Cc1ccc(CNCC2(O)CCN(C(=O)c3ccc(F)c(Cl)c3)CC2)nc1

Completion:
[6.38, 8.32, 6.66, 7.96]

---

test: Displacement of [3H]8-OH-DPAT from 5-HT1A receptor in pig cortex membranes; assay type: cell membranes, Sus scrofa
Measured Attribute: Ki (pM)
One number for each entry, in pM.

structure_string=Cc1ccc(CNCC2(F)CCN(C(=O)c3ccc(F)c(Cl)c3)CC2)nc1 unit_abbrev=pM quantitative_result=330
structure_string=Cc1ccc(CNCC2(F)CCN(C(=O)c3coc4ccccc34)CC2)nc1 unit_abbrev=pM quantitative_result=1100

Below are 2 molecules. Give each one its Ki.
1. Cc1ccc(CNCC2(F)CCN(C(=O)c3csc4ccccc34)CC2)nc1
2. Cc1ccc(CNCC2(F)CCN(C(=O)c3cc(Br)cs3)CC2)nc1

Completion:
1. 860
2. 1800

---

assay: Displacement of [3H]WAY-100635 from 5-HT1A receptor in pig cortex membranes; type: cell membranes, Sus scrofa
Measured Attribute: Ki (nM)
One number for each entry, in nM.

// solved cases for Ki follow
compound="Cc1ccc(CNCC2(F)CCN(C(=O)C34CC5CC(C)(CC(Br)(C5)C3)C4)CC2)nc1 (stereo not given)" measured_attribute=Ki quantitative_result=460
compound=COc1c(C(=O)N2CCC(F)(CNCc3ccc(C)cn3)CC2)csc1Br measured_attribute=Ki quantitative_result=17
compound=Cc1ccc(CNCC2(F)CCN(C(=O)c3cc(C)cs3)CC2)nc1 measured_attribute=Ki quantitative_result=8.3
compound=Cc1ccc(CNCC2(F)CCN(C(=O)c3cc4ccccc4[nH]3)CC2)nc1 measured_attribute=Ki quantitative_result=94
compound=Cc1ccc(CNCC2(F)CCN(C(=O)c3sccc3Br)CC2)nc1 measured_attribute=Ki quantitative_result=32
compound=Cc1ccc(CNCC2(F)CCN(C(=O)c3ccc(Cl)s3)CC2)nc1 measured_attribute=Ki quantitative_result=21
compound="Cc1ccc(CNCC2(F)CCN(C(=O)C34CC5CC(C3)CC(C(F)(F)C(F)C(F)(F)F)(C5)C4)CC2)nc1 (stereo not given)" measured_attribute=Ki quantitative_result=1300
compound=Cc1ccc(CNCC2(F)CCN(C(=O)c3cc4ccc3CCc3ccc(cc3)CC4)CC2)nc1 measured_attribute=Ki quantitative_result=320
compound=Cc1ccc(CNCC2(F)CCN(C(=O)C34CC5CC(CC(Br)(C5)C3)C4)CC2)nc1 measured_attribute=Ki quantitative_result=120

Prompt: Param item = Cc1ccc(CNCC2(F)CCN(C(=O)c3sccc3Cl)CC2)nc1 ; retrieve measured Ki.
Completion: 25

Entry source: ChEMBL document CHEMBL1255227
